The measurements presented in this section are drawn from the supplement of paper PMC6279402.

So I've got a bunch of molecules here, and I need their relative viability values.
test system: A549; test: relative viability (normalised to negative control = 1, bortezomib = 0) (fraction); higher = less cytotoxic; settings: inflammatory serum-free RHB-A with cytokines + LPS; 5 d + 24 h CellTiter-Blue; compound 300 nM; GSK126 pretreatment: none (vehicle)
Give bare numbers.

molecule: CC(C)CC(=O)Nc1n[nH]c2c1CN(C(=O)C1CCN(C)CC1)C2(C)C
relative viability: 0.787

For every record below, what is its relative viability?
1. COc1cc2c(Oc3ccc4[nH]c(C)cc4c3F)ncnc2cc1OCCCN1CCCC1 [Cediranib(AZD2171)]
2. S=c1[nH]cnc2nc[nH]c12 [Mercaptopurine]
3. Cc1cc(Nc2cc(N3CCN(C)CC3)nc(Sc3ccc(NC(=O)C4CC4)cc3)n2)n[nH]1

Response:
[0.996, 0.984, 0.459]

Could you report relative viability for every entry in the following list?
1. O=C(NOC[C@H](O)CO)c1ccc(F)c(F)c1Nc1ccc(I)cc1F
2. CS(=O)(=O)OCCCCOS(C)(=O)=O [Busulfan]
3. Cc1[nH]c(/C=C2\C(=O)Nc3ccccc32)c(C)c1CCC(=O)O

Response:
1: 0.112; 2: 0.893; 3: 0.772

I have 5 molecules here; please give me relative viability for each one.
1. CCN(CC)CCCC(C)Nc1c2ccc(Cl)cc2nc2ccc(OC)cc12 (configuration not stated)
2. O=c1c(O)c(-c2ccc(O)c(O)c2)oc2cc(O)cc(O)c12 [QUERCETIN; Quercetin(Sophoretin); Quercetin dihydrate]
3. COc1cccc(-c2cc(=O)c3ccccc3o2)c1N
4. COc1cc(Nc2ncc3c(n2)-c2ccc(Cl)cc2C(c2c(F)cccc2OC)=NC3)ccc1C(=O)O
5. Cc1ccc(C(=O)Nc2cccc(C(F)(F)F)c2)cc1Nc1nc(-c2cccnc2)nc2c1cnn2C

Response:
1: 1.02; 2: 0.945; 3: 0.825; 4: 0.381; 5: 1.06
